# assayed.target: Putative amino acid permease/transporter (Trypanosoma cruzi, UniProt D5FGE8)
# Sequence (D5FGE8 whole entry): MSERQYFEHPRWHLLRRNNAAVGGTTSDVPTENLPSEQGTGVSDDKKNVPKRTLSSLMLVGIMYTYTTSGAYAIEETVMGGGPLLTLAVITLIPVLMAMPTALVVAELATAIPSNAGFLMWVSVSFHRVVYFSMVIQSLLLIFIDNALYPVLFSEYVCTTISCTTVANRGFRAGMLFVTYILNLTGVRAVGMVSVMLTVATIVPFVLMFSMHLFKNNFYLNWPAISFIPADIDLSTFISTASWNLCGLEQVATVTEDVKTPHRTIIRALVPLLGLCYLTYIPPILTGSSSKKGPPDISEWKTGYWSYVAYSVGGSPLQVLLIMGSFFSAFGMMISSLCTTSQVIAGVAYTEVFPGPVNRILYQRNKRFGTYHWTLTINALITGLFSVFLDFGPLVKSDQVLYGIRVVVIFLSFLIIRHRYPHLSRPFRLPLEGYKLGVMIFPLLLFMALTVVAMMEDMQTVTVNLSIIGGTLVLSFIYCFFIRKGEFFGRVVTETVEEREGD
# protocol.details: Inhibition of Trypanosoma cruzi Y epimastigotes PAT assessed as reduction in [3H]--spermidine uptake after 10 mins by liquid scintillation counting method
readout.type: IC50 (µM)

[P] Cl.Cl.NCCCCNCc1c2ccccc2cc2ccccc12
[Q] NCCCCNCCCCNCc1c2ccccc2cc2ccccc12
[in] Pick one, P or Q : lowest reported IC50. Pick one and reply with its label.
[out] P

* * *

# Test system: Leishmania amazonensis
# protocol.details: Antiparasitic activity against Leishmania amazonensis MHOM/Br/75/Josefa promastigotes by light microscopic method
# Assay type: functional, organism-based
readout.type: pIC50
Bear in mind: pIC50 is minus log10 of a mol/L concentration; give just that figure.

[in] What does the data say about its pIC50? Entry: "NCCC(=O)CN"
[out] 3.84

* * *

# assayed.target: Putative amino acid permease/transporter (Trypanosoma cruzi)
# protocol.details: Inhibition of Trypanosoma cruzi Y trypamastigotes PAT assessed as reduction in [3H]--spermidine uptake after 10 mins by liquid scintillation counting method
readout.type: pIC50
Bear in mind: pIC50 is minus log10 of a mol/L concentration; give just that figure.

[in] What does the data say about its pIC50? Entry: "Cl.Cl.NCCCCNCc1c2ccccc2cc2ccccc12"
[out] 5.31

* * *

# Tested on: Vero
# protocol.details: Cytotoxicity against African green monkey Vero cells assessed as reduction in cell viability after 24 hrs by crystal violet staining based assay
# stated.conditions: Chlorocebus sabaeus
readout.type: pIC50
Bear in mind: pIC50 is minus log10 of a mol/L concentration; give just that figure.

[in] What does the data say about its pIC50? Entry: "Cl.Cl.NCCCCNCc1c2ccccc2cc2ccccc12"
[out] 5.23

* * *

# protocol.details: Selectivity index, ratio of IC50 for cytotoxicity against African green monkey Vero cells to IC50 for trypanopcidal activity against Trypanosoma cruzi Y trypamastigotes
# Assay type: toxicity, cell-based
# stated.conditions: read-out: Ratio IC50
readout.type: selectivity ratio
// keep it numeric: no unit symbol after the value

[in] What does the data say about its selectivity ratio? Entry: "Cl.Cl.NCCCCNCc1c2ccccc2cc2ccccc12"
[out] 12.7

* * *

# assayed.target: Putative amino acid permease/transporter (Trypanosoma cruzi)
# protocol.details: Inhibition of Trypanosoma cruzi Y trypamastigotes PAT assessed as reduction in [3H]-putrescine uptake after 10 mins by liquid scintillation counting method
readout.type: IC50 (µM)
Form entry: value (µM) — number only.

[in] What does the data say about its IC50? Entry: "Cl.Cl.NCCCCNCc1c2ccccc2cc2ccccc12"
[out] 4.94
